FYI, the data here is from patent US20060134087A1.

# Experimental Target: Human Neutrophil Elastase (human, UniProt P08246)
# Test Protocol: pH elution of display phage from hNE beads, extended protocol
Reported Metric: Recovery, Total fraction of input

Worked set:
| Binder | Observed Measurement |
| --- | --- |
| MA-BITI-E7-1222 display phage (designed binder) RPDFCQLGYSTGPCVAMFPRYFYNGTSMACETFQYGGCMGNGNNFVTEKDCLQTCRGA | 0.00054 fraction of input |
| MA-BITI-E7-141 display phage (designed binder) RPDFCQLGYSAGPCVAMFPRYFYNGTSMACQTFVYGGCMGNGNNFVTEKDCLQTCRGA | 0.0026 fraction of input |
| MUTT26A display phage (designed binder) RPDFCQLGYSAGPCVAMFPRYFYNGASMACQTFVYGGCMGNGNNFVTEKDCLQTCRGA | 0.0025 fraction of input |
| MUT1619 display phage (designed binder) RPDFCQLGYSAGPCVGMFSRYFYNGTSMACQTFVYGGCMGNGNNFVTEKDCLQTCRGA | 0.0012 fraction of input |

Turning to the following binder.
Give a short answer stating reported Recovery, Total fraction of input for AMINO1 display phage (designed binder) KEDFCQLGYSAGPCVAMFPRYFYNGTSMACETFQYGGCMGNGNNFVTEKDCLQTCRGA .
0.00029 fraction of input
